Each entry below carries its reported TGI.
# System: SK-MEL-28 melanoma
# Method: NCI tumour cell line growth inhibition, 48 h
Measure Name: TGI (µM)

1) CCSc1nc(N/N=C/c2cccs2)c2cnn(CO)c2n1 :: 29.3
2) CC12O[C@H](C[C@@H](OC(=O)CCC(=O)O)[C@H]1O)n1c3ccccc3c3c4c(c5c6ccccc6n2c5c31)C(=O)NC4=O :: 19.8
3) C[C@]12CCC(=O)C[C@@H]1CC[C@@H]1[C@@H]2CC[C@]2(C)[C@@H](OC(=O)N(CCCl)N=O)CC[C@@H]12 :: 23
4) O=c1c2c3c(sc2nc2n1NC=NN2)CCCC3 :: 36.1
5) CSc1ccc2c(c1)c(CCN)c(C)n2Cc1ccccc1Cl :: 3.22

====

# Test system: COLO 205 colon
# Method: NCI tumour cell line growth inhibition, 48 h
Measure Name: TGI

1) CCOC(=O)c1nc2cc(Cl)ccc2[nH]c1=O :: > 100 µM
2) CCCCCCCCN=C(NCCCCCCCC)SCc1cccc2ccccc12 :: 2.95 µM
3) O=C1/C(=C/c2ccc([N+](=O)[O-])o2)Oc2ccc(Cl)cc21 :: 4.08 µM
4) CCC(=O)Nc1nnc(Cc2ccc(OC)c(OC)c2)s1 :: > 100 µM
5) COc1ccc2c(c1)/C(=N/OC(C)=O)c1c-2c(OC)nc2ccccc12 :: > 100 µM
6) O=C(CC(C(=O)c1cccs1)c1ccsc1)c1ccc(Cl)s1 (configuration not stated) :: > 100 µM
7) CN(C)CC1CCC/C(=C\c2ccc(OC(=O)/C=C/c3ccc(Cl)cc3)cc2)C1=O (configuration not stated) :: 2.79 µM
8) Oc1[nH]c2ccccc2c1C=Nc1ccc(-n2cncn2)cc1 :: > 25 µM
9) CSc1ccc2c(c1)c(CCN)c(C)n2Cc1ccccc1Cl :: 2.99 µM
10) COc1ccc2[nH]c3c(c2c1)CC(=O)N1CCC[C@H](C1)CC31OCCCO1 :: > 100 µM
11) COC(=O)[C@@]12C3=NO[C@]1(C(=O)OC)C(O[Si](C)(C)C(C)(C)C)[C@@H](OC(C)=O)[C@@H](OC(C)=O)[C@@H]2[C@@H](OCc1ccccc1)CC3 (some centres not stated) :: > 100 µM
12) CCc1c(C)c2cc(-n3c(-c4ccc(OC)cc4)csc3=N)c(O)c(C)c2oc1=O :: 4.88 µM
13) COc1ccc(-c2oc3cc(O)c(OC)c(O)c3c(=O)c2O)cc1 :: > 80.6 µM
14) CSC(C1c2ccccc2N(C)c2[nH]c(=O)n(C)c(=O)c21)S(=O)(=O)c1ccc(C)cc1 (configuration not stated) :: > 100 µM
15) CCOC(=O)C1C(=O)CC(=O)C2CCCCC21 (configuration not stated) :: > 100 µM
16) C=C(C)C(=O)Nc1ccc(-c2c(-c3ccc(Oc4nccc(C)n4)c(F)c3)c3c(N)ncnc3n2C)cc1 :: 13.8 µM
17) O=C1Cc2cc(CCN3CCNCC3)c(Cl)cc2N1 :: > 100 µM
18) CCC(c1ccccc1)c1cc(C(C)(C)C)cc(C(C)(C)C)c1O (configuration not stated) :: 34.2 µM
19) O=S(=O)(c1ccccc1)c1ccc(-c2nc(-c3ccc4c(c3)Sc3ccccc3S4)cs2)cc1 :: > 100 µM
20) FC(F)(F)c1cccc(-c2[nH]ncc2-c2nnnn2-c2ccccc2)c1 :: 13 µM
21) Cc1cc(N2CCOCC2)nc(NCc2cc(Nc3ccnc4cc(Cl)ccc34)ccc2F)n1 :: 2.15 µM
22) COc1ccc2c(c1)[n+]([O-])c(-c1ccccc1Cl)c(N)[n+]2[O-] :: 32.6 µM
23) COc1ccc(C(O)c2ccccn2)cc1 (configuration not stated) :: > 100 µM
24) S=C(SSC(=S)N1CCCCC1)N1CCCCC1 :: 24.1 µM
25) Nc1ccn(C2CCC(COP(=O)(O)OCC(O)COP(=O)(O)OCC3OC(n4cc(F)c(=O)[nH]c4=O)CC3O)O2)c(=O)n1 (configuration not stated) :: > 100 µM
26) CCNC(=S)NNC(=O)c1ccccc1Nc1ccccc1C(=O)NNC(=S)NCC :: > 100 µM
27) CCN(CC)c1c(C)nnn1C1OC(COC(C)=O)C(OC(C)=O)C(OC(C)=O)C1OC(C)=O (configuration not stated) :: > 100 µM
28) COc1ccc2c(c1)-c1c(c3cc(OC)ccc3n(CCN(C)C)c1=O)C2=O :: 4.7 µM
29) CC(=O)CC(=O)Nc1ccccc1C(F)(F)F :: > 100 µM
30) CN(C)c1ccc2[nH]c3c(C(N)=O)cc(=O)c(=O)c=3oc2c1 :: > 100 µM
31) CN(C)N=Nc1ccc(S(N)(=O)=O)cc1 :: > 100 µM
32) NC(=S)N1N=C2c3ccccc3CCC[C@H]2[C@@H]1c1ccccc1 :: 6.32 µM
33) CC1(C)C(=O)/C=C\C(=O)C(C)(C)C(=O)/C=C\C(=O)C(C)(C)C2=CC=C(O2)C(C)(C)C(=O)/C=C\C1=O :: 6.45 µM
34) CN(C)CCCn1c(Cn2nc3ccccc3n2)nc2cc(C(F)(F)F)ccc21 :: 28.6 µM
35) COc1ccc(-c2nnc3n(C)c4ccccc4n3c2=O)cc1 :: > 100 µM
36) COc1ccc(C(=O)C(C(=O)C(=O)NCCCNC(=O)C(=O)C(C(=O)c2ccc(OC)cc2)c2ccc(OC)cc2)c2ccc(OC)cc2)cc1 (configuration not stated) :: > 100 µM
37) NC1=Nc2ccccc2Sc2cccc(F)c21 :: > 100 µM
38) NS(=O)(=O)c1ccc(N=Nc2c[nH]c(=O)c(O)c2)cc1 :: > 100 µM
39) CSc1ncc2c(n1)-c1ccccc1OC2 :: > 100 µM
40) C(=C/c1nnnn1-c1ccccc1)/Nc1ccccc1 :: > 100 µM
41) CNC(=O)CNC(=O)N(C[C@@H]1CCCN1C(=O)[C@H](CC(C)C)NC(=O)OC(C)(C)C)C(C)C :: > 100 µM
42) COC(=O)C(CCC1(C)OCCO1)=[N+]=[N-] :: > 100 µM

====

# System: HOP-62 NSCLC
# Method: NCI tumour cell line growth inhibition, 48 h
Measure Name: TGI (µM)

1) Cc1cc(N2CCOCC2)nc(NCc2cc(Nc3ccnc4cc(Cl)ccc34)ccc2F)n1 :: 2.96
2) COC(=O)c1cc2cc(/C=C3/SC(=S)N(N(C(C)=O)C(C)=O)C3=O)oc2n1Cc1ccccc1 :: 14.1
3) O=C1C(Cl)=C(NCCCN(CCCNC2=C(Cl)C(=O)c3ccccc3C2=O)C2=C(Cl)C(=O)c3ccccc3C2=O)C(=O)c2ccccc21 :: 42.3
4) COC(=O)C12Oc3ccc(-c4ccc5c(c4O)C(O)=C4C(=O)CC(C)C(O)C4(C(=O)OC)O5)c(O)c3C(O)=C1C(=O)CC(C)C2O (configuration not stated) :: 12.6
5) O=C1Nc2ccc(Br)cc2/C1=N/N1C(=O)C(=O)N(C2CCCCC2)C1=S :: 14.3
6) CN(C)CC1CCC/C(=C\c2ccc(OC(=O)/C=C/c3ccc(Cl)cc3)cc2)C1=O (configuration not stated) :: 14.8
7) COc1cnccc1Nc1nc(-c2nn(Cc3c(F)cc(OCCO)cc3F)c3ccccc23)ncc1OC :: 8.32
8) Clc1ccc(-c2nc(NCc3ccco3)c3ccccc3n2)c(Cl)c1 :: 34.7
9) CCN(C(=O)N[C@H](C(=O)N[C@@H](CSC)C(=O)N[C@@H](C)C(=O)OC)C(C)C)c1ccccc1 :: 36.4
10) CCN(CC)C(=S)SS(C)(=O)=O :: 40.2
11) CC(=O)c1c(C)c2cnc(Nc3ccc(N4CCNCC4)cn3)nc2n(C2CCCC2)c1=O :: 26.2
12) CCc1c(C)c2cc(-n3c(-c4ccc(OC)cc4)csc3=N)c(O)c(C)c2oc1=O :: 8.53
13) CC(=O)[CH-]C(=O)c1ccccc1.CC(=O)[CH-]C(=O)c1ccccc1.CC(=O)[CH-]C(=O)c1ccccc1.[Ga+3] :: 60.9
14) Fc1ccc(C(OCCN2CCC3CCC(C2)N3C/C=C/c2cccs2)c2ccc(F)cc2)cc1 (configuration not stated) :: 30.2
15) CC1OC(O[C@@H]2C=C3CC[C@@H]4[C@H](CC[C@]5(C)[C@@H](c6ccc(=O)oc6)CC[C@]45O)[C@@]3(C)CC2)C(O)C(OC2OC(CO)C(O)C(O)C2O)C1O (some centres not stated) :: 0.00151
16) Fc1ccc(Nc2nc(Nc3ccc(-c4nc5ccccc5[nH]4)cc3)c3cn[nH]c3n2)cc1 :: 5.02
17) FC(F)(F)c1cccc(-c2[nH]ncc2-c2nnnn2-c2ccccc2)c1 :: 23.4
18) O=C1c2cccnc2-c2nccc3c2c1nc1ccccc13 :: 0.514
